procedure_text: Viability qHTS for spleen associated tyrosine kinase inhibitor (SYKi) drug resistant MV4-11 cells (AID 1963824); note: nearly all actives have a fitted effect of over 35% in size
measurement_setup: SYKi-resistant MV4-11 viability, CellTiter-Glo, 72 h; series mostly up to 45 µM
Results filed as inconclusive are left out. Calls of active or inactive are those of the source. Calls come from the whole dose curve; as a rule, active = well fitted cell-killing curve with a large enough effect; inconclusive = small, poorly fitted or top-dose-only effect, or effect the other way; inactive = no such curve, though single readings can be large or run the other way.
Give your call using only these classes: true (active), false (inactive)

Example cases with answers are listed next.
• C[C@]12CCC(=O)C=C1[C@@H](O)C[C@@H]1[C@@H]2[C@@H](O)C[C@@]2(C)[C@H]1CC[C@]2(O)C(=O)CO = false
• [2H]C([2H])([2H])C(OC(=O)[C@H](C)N[P@](=O)(OC[C@H]1O[C@@H](n2ccc(=O)[nH]c2=O)[C@](C)(F)[C@@H]1O)Oc1ccccc1)C([2H])([2H])[2H] = true
• NC(=O)c1nc(F)c[nH]c1=O = false
• CC1(C)CC[C@]23CO[C@@]4(CCC5[C@@]6(C)CC[C@H](O[C@@H]7OC[C@H](O[C@@H]8O[C@H](CO)[C@@H](O)[C@H](O)[C@H]8O[C@@H]8OC[C@@H](O)[C@H](O)[C@H]8O)[C@H](O)[C@H]7O)[C@@](C)(CO)C6CC[C@@]5(C)[C@]4(C)CC2=O)[C@@H]3C1 (stereo not given in full) = true
• Nc1nnnn1-c1ccccc1 = false
• O=C1NCC2(CCN(CCc3ccccc3)CC2)O1 = false
• O=C(Nc1nc2ccccc2n1CCN1CCOCC1)c1cccc([N+](=O)[O-])c1 = true
• CC(C)c1cc(-c2ccc(F)c3ccccc23)nc(N)n1 = true

Any idea what this test logged for `Nc1ccn([C@@H]2O[C@H](CO)[C@@H](O)[C@H]2O)c(=O)n1` ?
false

Which outcome did this test record for the compound `CC/C(=C(/c1ccc(/C=C/C(=O)O)cc1)c1ccc2[nH]ncc2c1)c1ccc(F)cc1Cl` ?
true

---

procedure_text: Quantitative highthroughput screen to assess conditional lethalithy of NOMO1 cells grown in RPMI1640 with untreated serum (RPMI+s) (AID 1963876);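 note: 100% = DMSO wells and 0% = empty wells without cells; nearly all actives have a fitted effect of over 35% in size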
measurement_setup: NOMO1 AML cells in RPMI+serum, CellTiter-Glo viability, 48 h; series mostly up to 45.8 µM
Description: Assay Provider: Jason Cantor Ph.D. Department of Biochemistry University of Wisconsin-Madison, Madison, WI, USA Chemical screening studies have identified drug sensitivities across hundreds of cancer cell lines but most putative therapeutics fail to translate. […] Sets of conditional anticancer compounds spanned phases of clinical development and included non-oncology drugs were assessed. […] 6; Detection; Luminescence, Viewlux PerkinElmer. […]
Records with an inconclusive call do not appear. Calls of active or inactive are those of the source. The call rests on the fitted dose curve; in most records, active means well fitted cell-killing curve with a large enough effect; inconclusive means small, poorly fitted or top-dose-only effect; inactive means flat fitted curve, though single readings scatter.
Just give me one of these, please: 1 (active), -1 (inactive)

* N[C@@H](C(=O)N[C@@H]1C(=O)N2C(C(=O)O)=C(Cl)CS[C@H]12)c1ccccc1 | -1

Lab log entry: `C[C@@H]1CN(Cc2ccc(F)cc2)[C@@H](C)CN1C(=O)c1cc2c(C(=O)C(=O)N(C)C)cn(C)c2cc1Cl` — outcome as called in the assay?
-1

Entry `CC1=C[C@@H]2[C@@H]([C@@H](O)C[C@@]3(C)[C@H]2C[C@@H](C)[C@]3(O)C(=O)CO)[C@@]2(C)Cc3cnn(-c4ccccc4)c3C=C12` : call = ?
-1

Recorded test outcome, item `CCOC(=O)C=C[C@H](C[C@@H]1CCNC1=O)NC(=O)[C@@H](CC(=O)[C@@H](NC(=O)c1cc(C)on1)C(C)C)Cc1ccc(F)cc1`
-1

---

procedure_text: Quantitative highthroughput screen to assess conditional lethalithy of SEM cells grown in Human Plasma-Like Medium with dialyzed fetal bovine serum (HPLM+ds) (AID 1963882); note: nearly all actives have a fitted effect of over 35% in size
measurement_setup: SEM B-ALL cells in HPLM+ds, CellTiter-Glo viability, 48 h; series mostly up to 45.8 µM
Inconclusive results are not listed. The source made the active and inactive calls. Calls follow the shape of the dose curve; as a rule, active = well fitted cell-killing curve with a large enough effect; inconclusive = small, poorly fitted or top-dose-only effect, or effect the other way; inactive = no such curve, though single readings can be large or run the other way.
Respond with a class label; see TRUE = active, FALSE = inactive

Reference set, count: 2
• CCOC(=O)N1CCN([N+]([O-])=NOc2ccc([N+](=O)[O-])cc2C#N)CC1 = TRUE
• COCCn1c2c([n+](Cc3cnccn3)c1C)C(=O)c1ccccc1C2=O = TRUE

Recorded call for `Cc1c(NC(=O)c2ccc(C(C)(C)C)cc2)cccc1-c1cn(C)c(=O)c(Nc2ccc(C(=O)N3CCOCC3)cc2)n1` ?
FALSE

---

procedure_text: Quantitative highthroughput screen to assess conditional lethalithy of NOMO1 cells grown in RPMI1640 with dialyzed fetal bovine serum (RPMI+ds) (AID 1963877); note: nearly all actives have a fitted effect of over 30% in size; note: potency is the fitted concentration of half-maximal effect;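 for viability: 100% = DMSO control wells and 0% = empty wells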
measurement_setup: NOMO1 in RPMI+dialyzed FBS viability, ATP luminescence, 48 h; series mostly up to 45.8 µM
Results filed as inconclusive are left out. Activity calls are given as the source filed them. Calls follow the shape of the dose curve; as a rule, active = well fitted cell-killing curve with a large enough effect; inconclusive = small, poorly fitted or top-dose-only effect; inactive = flat fitted curve, though single readings scatter.
metric_name: Potency

# example entries with known answers
* CC(C)[C@H](O)C(=O)N[C@@H](C)C(=O)N[C@@H]1C(=O)N(C)CCc2ccccc21 | inactive
* O=C(O)c1ccc2c(c1)nc(Nc1cccc(Cl)c1)c1ccncc12 | 7.43 µM (active)
* O=c1cc(N2CCOCC2)oc2c(-c3cccc4c3sc3ccccc34)cccc12 | inactive
* Cc1ccc([N+](=O)[O-])cc1S(=O)(=O)N(C)N=Cc1cnc2ccc(Br)cn12 | 0.105 µM (active)
* CCn1c(-c2nonc2N)nc2cnc(Oc3cccc(NC(=O)c4ccc(OCCN5CCOCC5)cc4)c3)cc21 | 1.18 µM (active)

Entry under test: COc1cc(O)c2c(c1)C1OC1C[C@H](O)[C@H](O)C(=O)C=CC[C@H](C)OC2=O (stereo partly drawn) . Its Potency was 13.2 µM (active)

Just so you know, measured Potency for `COC(=O)N1CC2(CC2)C[C@H](C(=O)NO)[C@H]1C(=O)N1CCN(c2ccccc2)CC1` came out at 3.31 µM (active)

Consider `CS[C@H]1SC[C@@H]2C(=O)N(C)[C@H](C(C)C)C(=O)OC[C@H](NC(=O)c3cnc4ccccc4n3)C(=O)N[C@H](C)C(=O)N(C)[C@@H]1C(=O)N(C)[C@H](C(C)C)C(=O)OC[C@H](NC(=O)c1cnc3ccccc3n1)C(=O)N[C@H](C)C(=O)N2C` . Its measured Potency is 0.0209 µM (active)

Documented Potency of `CC=C(C(=CC)c1ccc(O)cc1)c1ccc(O)cc1` : inactive

`Nc1ncnc2c1ncn2[C@@H]1O[C@H](CO)C[C@@H]1O` yielded Potency of inactive

In plain terms, COc1ccc(C2Sc3ccccc3N(CCN(C)C)C(=O)C2OC(C)=O)cc1 (stereo not drawn) has a documented Potency of inactive

---

procedure_text: Viability qHTS for spleen associated tyrosine kinase inhibitor (SYKi) drug resistant MV4-11 cells (AID 1963824); note: nearly all actives have a fitted effect of over 35% in size
measurement_setup: SYKi-resistant MV4-11 viability, CellTiter-Glo, 72 h; series mostly up to 45 µM
Records with an inconclusive call do not appear. Calls of active or inactive are those of the source. The call rests on the fitted dose curve; in most records, active means well fitted cell-killing curve with a large enough effect; inconclusive means small, poorly fitted or top-dose-only effect, or effect the other way; inactive means no such curve, though single readings can be large or run the other way.
I would appreciate it if you answered using one of these outcomes: active, inactive

Study these solved cases before continuing.
- Cc1c(Cl)cccc1S(=O)(=O)Nc1nc(NCCc2ccccc2)nc2c1CN(Cc1ccccc1)CC2: active
- COc1cc(CCc2cc(NC(=O)c3ccc(N4CC(C)NC(C)C4)cc3)n[nH]2)cc(OC)c1 (configuration not stated): active

Called result for `CCCCCC[C@@H](CCC)C(=O)O`
inactive

What was the test verdict on `C[C@@H]1O[C@@H](OC[C@H]2O[C@@H](OCCc3ccccc3)[C@H](O)[C@@H](O)[C@@H]2O)[C@H](O)[C@H](O)[C@H]1O` ?
inactive

---

procedure_text: Cellular viability qHTS for adrenocortical cancer (ACC) cell line NCI-H295R (AID 1963990); note: nearly all actives have a fitted effect of over 60% in size
measurement_setup: CellTiter-Glo ATP luminescence, 48 h; series mostly up to 46.1 µM
Results filed as inconclusive are left out. Calls of active or inactive are those of the source. Calls follow the shape of the dose curve; as a rule, active = well fitted cell-killing curve with a large enough effect; inconclusive = small, poorly fitted or top-dose-only effect; inactive = flat fitted curve, though single readings scatter.
Hello, when you answer, please use one of the following outcomes: active, inactive

These solved cases illustrate the format of a correct answer.
• CN1CCc2c(c3ccccc3n2Cc2ccc(C(=O)NO)cc2)C1 = active
• O=C(O)Cc1ccc(CCNS(=O)(=O)c2ccc(Cl)cc2)cc1 = inactive
• COc1nc(-c2ccc3c(c2)OCO3)n(-c2ccc(NC(=O)CSc3ccccc3)cc2)n1 = inactive
• NC(=O)c1ccccc1Nc1ccnc(Nc2cccc(O)c2)n1 = active
• CC(C(C)N1CC(=O)NC(=O)C1)N1CC(=O)NC(=O)C1 (stereo unspecified) = inactive
• Cc1ccc(-c2ncc(Cl)cc2-c2ccc(S(C)(=O)=O)cc2)cn1 = inactive

Kindly provide the recorded test outcome for the following compound: `O=C(O)CCCCCCCC(=O)O`
inactive

Assay outcome for `O=C(/C=C/c1ccc2ccc(C(F)(F)F)cc2n1)c1ccncc1` : what was it?
active

Look up the recorded call for O=C(c1ccccc1)c1ccc2n1CCC2C(=O)O (stereo unspecified) in this test.
inactive

Entry `Cc1c[nH]c(/C=C2\C(=O)Nc3ccccc32)c1CCC(=O)O` : call = ?
inactive

Please indicate how the test categorized `CC1CCN(c2cc(N3CCN(C)CC3)ccc2NC(=O)c2cc(C#N)c[nH]2)CC1` .
inactive

Hi, do you know how COc1nc(N)nc2c1ncn2C1OC(CO)C(O)C1O (stereo unspecified) came out in this test?
inactive

Fill in: this test's call for `CC(C)Nc1cccnc1N1CCN(C(=O)c2cc3cc(NS(C)(=O)=O)ccc3[nH]2)CC1` is ___
inactive

Record lookup: outcome of this test for `C[C@]12CCC(=O)C=C1CC[C@H]1[C@@H]3CC[C@](O)(C(=O)CO)[C@@]3(C)C[C@H](O)[C@@]12F` ?
inactive

What call does the record list for `Nc1nnc(-c2cccc(Cl)c2Cl)c(N)n1` ?
inactive

Assay outcome for O=C(O)C(Cc1cc(I)c(O)c(I)c1)c1ccccc1 (stereo unspecified) : what was it?
inactive

Outcome? CC1(C)S[C@@H]2[C@H](NC(=O)C(c3ccccc3)S(=O)(=O)O)C(=O)N2[C@H]1C(=O)O (stereo partly specified)
inactive

Status in this test for `C=CCNc1c(O)cc2c(O)c1C[C@@H](C)C[C@H](OC)[C@H](O)[C@@H](C)/C=C(/C)[C@H](OC(N)=O)[C@@H](OC)/C=C\C=C(\C)C(=O)N2` ?
active

Look up the recorded call for Cc1nc(NC(=O)N2CCCC2C(N)=O)sc1-c1ccnc(C(C)(C)C(F)(F)F)c1 (stereo unspecified) in this test.
active

GET /call?item= `C=C(C)[C@@H]1CC[C@]2(C(=O)O)CC[C@]3(C)[C@H](CC[C@@H]4[C@@]5(C)CC[C@H](O)C(C)(C)[C@@H]5CC[C@]43C)[C@@H]12` returns the recorded outcome of this test.
inactive

Query: recorded result category for `COc1cc2c(cc1O)CCN[C@]21CS[C@@H]2c3c(OC(C)=O)c(C)c4c(c3[C@H](COC1=O)N1[C@@H]2[C@H]2c3c(cc(C)c(OC)c3O)C[C@@H]([C@@H]1O)N2C)OCO4` in this test
active

State the result this test recorded for `CC(=O)N(O)CCCCCNC(=O)CCC(=O)N(O)CCCCCNC(=O)CCC(=O)N(O)CCCCCN` .
inactive

Hi, do you know how `CC1CCN(CCCC(=O)c2ccc(F)cc2)CC1` came out in this test?
inactive

I'd appreciate the recorded outcome for `NC(=O)C1(N2CCCCC2)CCN(CCCN2c3ccccc3CCc3ccc(Cl)cc32)CC1` from this test.
active

Identify the outcome logged in this assay for the compound shown: `Cc1c(C(=O)N2CCOc3ccc(-c4ccc(N)nc4)cc3C2)ccc(S(C)(=O)=O)c1F`
active

// return assay outcome for NCCCC(N)(C(=O)O)C(F)F (stereo unspecified)
inactive
